// values below are reported GI50
- System: NCI/ADR-RES
- Method: NCI tumour cell line growth inhibition, 48 h
Active and inactive are the calls of the source. Cut-off read from the data, not from the text of the source: active = GI50 up to about 1.1 µM and inactive = higher.
Assay Endpoint: GI50

• COC(OC)C1OC(CO)C(n2cc(C)c(=O)[nH]c2=O)C1O (configuration not stated) = > 100 µM (inactive)
• O=C(c1ccccc1)c1ccc2[nH]c(-c3c(Cl)c(Cl)c(Cl)c(Cl)c3C(=O)N/N=C\C=C\c3ccccc3)nc2c1 = > 100 µM (inactive)
• O=C(O)C(F)(OC(F)(F)C(F)(OC(F)(F)C(F)(F)C(F)(F)F)C(F)(F)F)C(F)(F)F (configuration not stated) = > 100 µM (inactive)
• COc1ccc(C[C@H]2COC(=O)[C@@H]2Cc2ccccc2)cc1OC = > 100 µM (inactive)
• Cc1ccc(C(=O)O)c(/C=C2\Cc3ccc(C)cc3C2=O)c1 = 71.8 µM (inactive)
• COC(=O)[C@@H]1C[C@H]2[C@H](c3ccccc3Br)[C@@H](OC(C)=O)[C@@H](OCc3ccccc3)ON2O1 = > 100 µM (inactive)
• Nc1cc(C2CCCc3c2[nH]c2ccccc32)ccc1O (configuration not stated) = 22 µM (inactive)
• Nc1nc(-c2cccnc2)cc(-c2cc(-c3cccnc3)nc(N)n2)n1 = > 100 µM (inactive)
• CC(=O)OC1CCC2(C)C(=CCC3C4CCC5(OC6CC(C)CN(C(C)=O)C6C5C)C(C)=C4C(=O)C32)C1 (configuration not stated) = 18 µM (inactive)
• O=C(Nc1cc(C(=O)Nc2cccc(S(=O)(=O)O)c2)cc(C(=O)Nc2cccc(S(=O)(=O)O)c2)c1)c1cccc(C(=O)Nc2cc(C(=O)Nc3cccc(S(=O)(=O)O)c3)cc(C(=O)Nc3cccc(S(=O)(=O)O)c3)c2)c1 = > 100 µM (inactive)
• O=C(C[C@H](NC(=O)OCc1ccccc1)C(=O)NC1Cc2ccccc2OC1=O)OCc1ccccc1 (some centres not stated) = > 100 µM (inactive)
• COc1cc(-c2c(C(C)=O)c(-c3ccccc3)n(C3OC(COC(C)=O)C(OC(C)=O)C(OC(C)=O)C3OC(C)=O)c(=S)c2C#N)ccc1O (configuration not stated) = > 100 µM (inactive)
• O=C(NNC(=O)c1ccccc1S)c1ccccc1S [BIS(THIOSALICYL)HYDRAZIDE] = 11.3 µM (inactive)
• NN/C(=N\S(=O)(=O)c1ccc(-c2ccccn2)s1)Nc1ccc(Cl)cc1 = > 100 µM (inactive)
• C[C@]12CC[C@H]3[C@@H](CC=C4C[C@@H](O)CC[C@@]43C)[C@@H]1C/C(=C\c1cccnc1)[C@@H]2O = 11.8 µM (inactive)
• CCOC(=O)c1nc(SC)sc1NC(=O)c1ccc(OC)cc1 = > 100 µM (inactive)
• O=[N+]([O-])c1ccc2sc(/C=N/c3cnccn3)cc2c1 = 70.3 µM (inactive)
